biological target: T1, human PCSK9 (proprotein convertase subtilisin kexin type 9) (human, UniProt Q8NBP7 31-692); experiment: FRET direct binding, anti-his6 antibody
T1 construct: Directly immobilized (SPR ProteOn), biotinylated (BLI), or in solution, depending on the assay; also called hPCSK9
T1 sequence (Q8NBP7 31-692 limits assumed): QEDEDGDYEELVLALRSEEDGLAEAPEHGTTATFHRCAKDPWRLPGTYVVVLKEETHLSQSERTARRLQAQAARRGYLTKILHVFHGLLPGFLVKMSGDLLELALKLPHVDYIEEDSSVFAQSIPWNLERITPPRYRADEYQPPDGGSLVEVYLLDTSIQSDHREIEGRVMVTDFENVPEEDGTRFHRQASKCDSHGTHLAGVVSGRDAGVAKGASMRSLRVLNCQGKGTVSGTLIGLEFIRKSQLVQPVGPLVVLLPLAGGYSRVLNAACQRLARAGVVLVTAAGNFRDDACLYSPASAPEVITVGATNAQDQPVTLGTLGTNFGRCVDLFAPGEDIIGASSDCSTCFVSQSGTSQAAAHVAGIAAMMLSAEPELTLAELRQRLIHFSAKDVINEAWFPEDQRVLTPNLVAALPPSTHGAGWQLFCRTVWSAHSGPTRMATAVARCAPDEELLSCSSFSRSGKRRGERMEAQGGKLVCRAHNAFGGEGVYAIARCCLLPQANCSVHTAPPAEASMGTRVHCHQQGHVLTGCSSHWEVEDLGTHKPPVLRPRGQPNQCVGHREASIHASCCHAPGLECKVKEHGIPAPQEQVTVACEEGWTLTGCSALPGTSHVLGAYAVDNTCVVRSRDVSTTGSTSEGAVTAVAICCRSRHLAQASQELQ
Let's look at some binders and their measured pEC50.
Recall that pEC50 is obtained by taking minus log10 of the concentration measured in molar.

# annotated cases, reported pEC50 shown
[
  {
    "BINDER": "1784F03 (designed binder, Anti-PCSK9 Adnectin, His6-tagged) MGVSDVPRDLEVVAATPTSLLISWRPPIHAYGYYRITYGETGGNSPVQEFTVPIVEGTATISGLKPGVDYTITVYAVEYTFKHSGYYHRPISINYRTEIDKPSQHHHHHH",
    "pEC50": 8.80
  },
  {
    "BINDER": "2382B10 (designed binder, Anti-PCSK9 Adnectin, His6-tagged) MGVSDVPRDLEVVAATPTSLLISWDAPADAYGYYRITYGETGGNSPVQEFTVPSSKGTATISGLKPGVDYTITVYAVEYDFPGSGYYHRPISINYRTEIDKPSQHHHHHH",
    "pEC50": 8.51
  },
  {
    "BINDER": "2382F05 (designed binder, Anti-PCSK9 Adnectin, His6-tagged) MGVSDVPRDLEVVAATPTSLLISWDAPAEAGKHYGYYRITYGETGGNSPVQEFTVPVSKGTATISGLKPGVDYTITVYAVEFDFPGAGYYHRPISINYRTEIDKPSQHHHHHH",
    "pEC50": 8.42
  }
]

Query :: Fill in the blank: the reported pEC50 of 2381B08 (designed binder, Anti-PCSK9 Adnectin, His6-tagged) MGVSDVPRDLEVVAATPTSLLISWDAPADGGYGYYRITYGETGGNSPVQEFTVPSSKGTATISGLKPGVDYTITVYAVEYTFPGAGYYHRPISINYRTEIDKPSQHHHHHH is ____.
Result :: 8.39
